- measuredOn: Uracil-DNA glycosylase (Homo sapiens) (UniProt P13051)
- Sequence (P13051 whole entry): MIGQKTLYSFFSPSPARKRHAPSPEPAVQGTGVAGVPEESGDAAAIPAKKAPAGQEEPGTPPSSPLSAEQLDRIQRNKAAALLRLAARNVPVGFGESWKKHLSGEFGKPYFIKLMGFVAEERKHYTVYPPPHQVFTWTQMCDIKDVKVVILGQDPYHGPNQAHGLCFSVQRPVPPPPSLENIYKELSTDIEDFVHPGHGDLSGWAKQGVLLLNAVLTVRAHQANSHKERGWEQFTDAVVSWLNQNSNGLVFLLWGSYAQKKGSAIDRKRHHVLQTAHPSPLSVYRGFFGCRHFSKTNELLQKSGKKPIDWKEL
- conditionDescription: Compound Concentration 10.0 uM, Hit No;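 also: UNG excision on a quenched double-stranded DNA oligo probe, with APE1 added for strand incision and turnover, read as fluorescence at 594 nm as strands separate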
- Description: Inhibition of UNG by quantifying inhibition of UNG-mediated cleavage and dissociation of quenched duplex DNA oligonucleotides, measured as fluorescence at 594 nm. To generate a functional strand incision and increase turn-over this assay is coupled to APE1.
Task for the reader: assign each of the following molecules its reported inhibition.
Answers are plain numbers, in %.

[[record]]
smilesentry = "COCCOCCn1nc2c(c1C)-c1c(Cl)ccc3c1c(C)c(C(=O)O)n3CCCOc1cc(cc3c(F)c(Cl)ccc13)CCc1cc(nn1C)CSC2"
units = "%"
testvalue = 9.88

[[record]]
smilesentry = "Cc1nc(C2CCN(C(=O)c3ccc(OC(F)(F)F)cc3N)CC2)c2ncc(N3CCN(C)CC3)cc2n1"
units = "%"
testvalue = 7.52

[[record]]
smilesentry = "CCOC(=O)Nc1ccc2c(c1)N(C(=O)CN(CC)CC)c1ccccc1CC2"
units = "%"
testvalue = -1.75

[[record]]
smilesentry = "Clc1ccc(-c2nc3sccn3c2/C=N/OCc2ccc(Cl)c(Cl)c2)cc1"
units = "%"
testvalue = -2.04

[[record]]
smilesentry = "O=C(c1ccc(F)c(F)c1Nc1ccc(I)cc1F)N1CC(O)([C@@H]2CCCCN2)C1"
units = "%"
testvalue = 7.28


For each of the items listed, what is its inhibition?
1. CC(C)(O)c1ccccc1CC[C@@H](SCC1(CC(=O)O)CC1)c1cccc(/C=C/c2ccc3ccc(Cl)cc3n2)c1
2. CC(=O)Nc1c(F)cc(C(=O)N[C@H]2CC[C@H](O)CC2)cc1O[C@@H](C)c1ccccc1
3. c1ccc(Cn2c(N3CCNCC3)nc3ccccc32)cc1
4. CC[C@H]1CN(c2nc(N)c(C(N)=O)nc2Cl)CCN1C1CCN(Cc2ccc(Cl)cc2)CC1

a:
[8.83, 5.95, -7.26, -8.52]
